// cross-study collection: log10(IC50) for Coagulation factor X (Homo sapiens)
Quick note: numbers are log10 of IC50, with nM as the unit.

{"Compound": "O=C(C1CCN(c2ccncc2)CC1)N1CCC(CNS(=O)(=O)c2ccc3ccccc3c2)C1 (racemic)", "Observed measurement": 3.04}
{"Compound": "CCCN(C)C(=N)c1ccc(C(=O)Nc2ccccc2C(=O)Nc2ccc(Cl)cn2)cc1", "Observed measurement": 0.95}
{"Compound": "CN(Cc1ccc(C(=O)Nc2ccc(Cl)cc2C(=O)Nc2ccc(Cl)cn2)cc1)C1=NCCS1", "Observed measurement": 1.00}
{"Compound": "CN1CCN=C1c1ccc(C(=O)N2CCN(S(=O)(=O)c3cc4ccc(Cl)cc4s3)CC2CC(=O)N2CCCC2)cc1 (centres undefined)", "Observed measurement": 0.78}
{"Compound": "NS(=O)(=O)c1ccccc1-c1ccc(C(=O)Nc2cccnc2C(=O)Nc2ccc(Cl)cn2)cc1", "Observed measurement": 1.41}

Would you kindly look at the next entry?
Q: Give the measured log10(IC50) of CN(C)C(=N)c1ccc(C(=O)Nc2ccc(Cl)cc2C(=O)Nc2ccc(F)cn2)cc1 .
Result: 0.48

###

// cross-study collection: pIC50 for Coagulation factor X (Homo sapiens, UniProt P00742)
On this scale, pIC50 is minus log10 of a concentration expressed in M (mol/L).

{"Molecule": "COc1ccc(NC(=N[C@H]2CCCCN(CC(=O)N3CCCC3)C2=O)NC(=O)c2ccc(N(C)C)cc2)cc1", "Observed measurement": 6.39}
{"Molecule": "N=C(N)NCCCC(NC(=O)CN1CCN(S(=O)(=O)c2ccc(C(F)(F)F)cc2)CC1=O)C(=O)c1nccs1 (centres undefined)", "Observed measurement": 8.00}
{"Molecule": "CC(C)NC(=O)[C@H]1CC[C@H](NC(=O)c2cc3cc(Cl)ccc3[nH]2)[C@H](NC(=O)c2nc3c(s2)CN(C)CC3)C1", "Observed measurement": 8.47}

Q: # get_value(readout= pIC50, system= Coagulation factor X (Homo sapiens, UniProt P00742)) for CCOC(=O)N1CCC(NC(=O)c2nc3c(s2)CN(C)CC3)C(NC(=O)c2cc3cc(Cl)ccc3[nH]2)C1 (racemic)
Result: 6.96

###

// cross-study collection: log10(IC50) for Coagulation factor X (Homo sapiens, UniProt P00742)
Quick note: numbers are log10 of IC50, with nM as the unit.

{"Smiles input": "CN(C(=O)[C@@H]1Cc2ccccc2CN1C(=O)c1ccc(Cl)s1)c1ccc(N2CCOCC2=O)cc1", "log10(IC50)": 4.56}

Q: # get_value(readout= log10(IC50), system= Coagulation factor X (Homo sapiens, UniProt P00742)) for C/C(=C(/F)C(=O)Nc1ccc(-c2ccccc2S(N)(=O)=O)cc1)c1ccc2ncnc(N)c2c1
Result: 2.43

Q: # get_value(readout= log10(IC50), system= Coagulation factor X (Homo sapiens, UniProt P00742)) for CCCc1ccc(-c2ccc(C(=O)NCC(C)C)cc2C(=O)O)c(C(=O)Nc2ccc(C(=N)N)cc2)c1
Result: 4.66

Q: # get_value(readout= log10(IC50), system= Coagulation factor X (Homo sapiens, UniProt P00742)) for COc1ccc(C(=O)NC(=N[C@H]2CCCCN(CC(=O)N3CCCC3)C2=O)Nc2cccc(C)c2)cc1OC
Result: 2.60

Q: # get_value(readout= log10(IC50), system= Coagulation factor X (Homo sapiens, UniProt P00742)) for CS(=O)(=O)N1CCN(CC(=O)N[C@@H](CCCNC(=N)N)C(=O)c2nccs2)C(=O)[C@@H]1Cc1ccccc1
Result: 2.66

Q: # get_value(readout= log10(IC50), system= Coagulation factor X (Homo sapiens, UniProt P00742)) for O=C(Nc1ccc(N2CCOCC2=O)cc1)[C@@H]1Cc2ccccc2CN1C(=O)c1ccc(CCl)cc1
Result: 3.46

Q: # get_value(readout= log10(IC50), system= Coagulation factor X (Homo sapiens, UniProt P00742)) for CCN1CCN=C1c1ccc(C(=O)Nc2ccc(Cl)cc2C(=O)Nc2ccc(Cl)cn2)cc1
Result: 0.78

Q: # get_value(readout= log10(IC50), system= Coagulation factor X (Homo sapiens, UniProt P00742)) for N=C(N)c1ccc(C(=O)N2CCN(S(=O)(=O)c3ccc4cc(Br)ccc4c3)CC2)cc1
Result: 1.81
